biological target: DNA-dependent protein kinase catalytic subunit (Homo sapiens); assay: Inhibition of human DNA-PK using EPPLSQEAFADLWKK as substrate at 10 uM by HTRF assay
Sequence (P78527 whole entry): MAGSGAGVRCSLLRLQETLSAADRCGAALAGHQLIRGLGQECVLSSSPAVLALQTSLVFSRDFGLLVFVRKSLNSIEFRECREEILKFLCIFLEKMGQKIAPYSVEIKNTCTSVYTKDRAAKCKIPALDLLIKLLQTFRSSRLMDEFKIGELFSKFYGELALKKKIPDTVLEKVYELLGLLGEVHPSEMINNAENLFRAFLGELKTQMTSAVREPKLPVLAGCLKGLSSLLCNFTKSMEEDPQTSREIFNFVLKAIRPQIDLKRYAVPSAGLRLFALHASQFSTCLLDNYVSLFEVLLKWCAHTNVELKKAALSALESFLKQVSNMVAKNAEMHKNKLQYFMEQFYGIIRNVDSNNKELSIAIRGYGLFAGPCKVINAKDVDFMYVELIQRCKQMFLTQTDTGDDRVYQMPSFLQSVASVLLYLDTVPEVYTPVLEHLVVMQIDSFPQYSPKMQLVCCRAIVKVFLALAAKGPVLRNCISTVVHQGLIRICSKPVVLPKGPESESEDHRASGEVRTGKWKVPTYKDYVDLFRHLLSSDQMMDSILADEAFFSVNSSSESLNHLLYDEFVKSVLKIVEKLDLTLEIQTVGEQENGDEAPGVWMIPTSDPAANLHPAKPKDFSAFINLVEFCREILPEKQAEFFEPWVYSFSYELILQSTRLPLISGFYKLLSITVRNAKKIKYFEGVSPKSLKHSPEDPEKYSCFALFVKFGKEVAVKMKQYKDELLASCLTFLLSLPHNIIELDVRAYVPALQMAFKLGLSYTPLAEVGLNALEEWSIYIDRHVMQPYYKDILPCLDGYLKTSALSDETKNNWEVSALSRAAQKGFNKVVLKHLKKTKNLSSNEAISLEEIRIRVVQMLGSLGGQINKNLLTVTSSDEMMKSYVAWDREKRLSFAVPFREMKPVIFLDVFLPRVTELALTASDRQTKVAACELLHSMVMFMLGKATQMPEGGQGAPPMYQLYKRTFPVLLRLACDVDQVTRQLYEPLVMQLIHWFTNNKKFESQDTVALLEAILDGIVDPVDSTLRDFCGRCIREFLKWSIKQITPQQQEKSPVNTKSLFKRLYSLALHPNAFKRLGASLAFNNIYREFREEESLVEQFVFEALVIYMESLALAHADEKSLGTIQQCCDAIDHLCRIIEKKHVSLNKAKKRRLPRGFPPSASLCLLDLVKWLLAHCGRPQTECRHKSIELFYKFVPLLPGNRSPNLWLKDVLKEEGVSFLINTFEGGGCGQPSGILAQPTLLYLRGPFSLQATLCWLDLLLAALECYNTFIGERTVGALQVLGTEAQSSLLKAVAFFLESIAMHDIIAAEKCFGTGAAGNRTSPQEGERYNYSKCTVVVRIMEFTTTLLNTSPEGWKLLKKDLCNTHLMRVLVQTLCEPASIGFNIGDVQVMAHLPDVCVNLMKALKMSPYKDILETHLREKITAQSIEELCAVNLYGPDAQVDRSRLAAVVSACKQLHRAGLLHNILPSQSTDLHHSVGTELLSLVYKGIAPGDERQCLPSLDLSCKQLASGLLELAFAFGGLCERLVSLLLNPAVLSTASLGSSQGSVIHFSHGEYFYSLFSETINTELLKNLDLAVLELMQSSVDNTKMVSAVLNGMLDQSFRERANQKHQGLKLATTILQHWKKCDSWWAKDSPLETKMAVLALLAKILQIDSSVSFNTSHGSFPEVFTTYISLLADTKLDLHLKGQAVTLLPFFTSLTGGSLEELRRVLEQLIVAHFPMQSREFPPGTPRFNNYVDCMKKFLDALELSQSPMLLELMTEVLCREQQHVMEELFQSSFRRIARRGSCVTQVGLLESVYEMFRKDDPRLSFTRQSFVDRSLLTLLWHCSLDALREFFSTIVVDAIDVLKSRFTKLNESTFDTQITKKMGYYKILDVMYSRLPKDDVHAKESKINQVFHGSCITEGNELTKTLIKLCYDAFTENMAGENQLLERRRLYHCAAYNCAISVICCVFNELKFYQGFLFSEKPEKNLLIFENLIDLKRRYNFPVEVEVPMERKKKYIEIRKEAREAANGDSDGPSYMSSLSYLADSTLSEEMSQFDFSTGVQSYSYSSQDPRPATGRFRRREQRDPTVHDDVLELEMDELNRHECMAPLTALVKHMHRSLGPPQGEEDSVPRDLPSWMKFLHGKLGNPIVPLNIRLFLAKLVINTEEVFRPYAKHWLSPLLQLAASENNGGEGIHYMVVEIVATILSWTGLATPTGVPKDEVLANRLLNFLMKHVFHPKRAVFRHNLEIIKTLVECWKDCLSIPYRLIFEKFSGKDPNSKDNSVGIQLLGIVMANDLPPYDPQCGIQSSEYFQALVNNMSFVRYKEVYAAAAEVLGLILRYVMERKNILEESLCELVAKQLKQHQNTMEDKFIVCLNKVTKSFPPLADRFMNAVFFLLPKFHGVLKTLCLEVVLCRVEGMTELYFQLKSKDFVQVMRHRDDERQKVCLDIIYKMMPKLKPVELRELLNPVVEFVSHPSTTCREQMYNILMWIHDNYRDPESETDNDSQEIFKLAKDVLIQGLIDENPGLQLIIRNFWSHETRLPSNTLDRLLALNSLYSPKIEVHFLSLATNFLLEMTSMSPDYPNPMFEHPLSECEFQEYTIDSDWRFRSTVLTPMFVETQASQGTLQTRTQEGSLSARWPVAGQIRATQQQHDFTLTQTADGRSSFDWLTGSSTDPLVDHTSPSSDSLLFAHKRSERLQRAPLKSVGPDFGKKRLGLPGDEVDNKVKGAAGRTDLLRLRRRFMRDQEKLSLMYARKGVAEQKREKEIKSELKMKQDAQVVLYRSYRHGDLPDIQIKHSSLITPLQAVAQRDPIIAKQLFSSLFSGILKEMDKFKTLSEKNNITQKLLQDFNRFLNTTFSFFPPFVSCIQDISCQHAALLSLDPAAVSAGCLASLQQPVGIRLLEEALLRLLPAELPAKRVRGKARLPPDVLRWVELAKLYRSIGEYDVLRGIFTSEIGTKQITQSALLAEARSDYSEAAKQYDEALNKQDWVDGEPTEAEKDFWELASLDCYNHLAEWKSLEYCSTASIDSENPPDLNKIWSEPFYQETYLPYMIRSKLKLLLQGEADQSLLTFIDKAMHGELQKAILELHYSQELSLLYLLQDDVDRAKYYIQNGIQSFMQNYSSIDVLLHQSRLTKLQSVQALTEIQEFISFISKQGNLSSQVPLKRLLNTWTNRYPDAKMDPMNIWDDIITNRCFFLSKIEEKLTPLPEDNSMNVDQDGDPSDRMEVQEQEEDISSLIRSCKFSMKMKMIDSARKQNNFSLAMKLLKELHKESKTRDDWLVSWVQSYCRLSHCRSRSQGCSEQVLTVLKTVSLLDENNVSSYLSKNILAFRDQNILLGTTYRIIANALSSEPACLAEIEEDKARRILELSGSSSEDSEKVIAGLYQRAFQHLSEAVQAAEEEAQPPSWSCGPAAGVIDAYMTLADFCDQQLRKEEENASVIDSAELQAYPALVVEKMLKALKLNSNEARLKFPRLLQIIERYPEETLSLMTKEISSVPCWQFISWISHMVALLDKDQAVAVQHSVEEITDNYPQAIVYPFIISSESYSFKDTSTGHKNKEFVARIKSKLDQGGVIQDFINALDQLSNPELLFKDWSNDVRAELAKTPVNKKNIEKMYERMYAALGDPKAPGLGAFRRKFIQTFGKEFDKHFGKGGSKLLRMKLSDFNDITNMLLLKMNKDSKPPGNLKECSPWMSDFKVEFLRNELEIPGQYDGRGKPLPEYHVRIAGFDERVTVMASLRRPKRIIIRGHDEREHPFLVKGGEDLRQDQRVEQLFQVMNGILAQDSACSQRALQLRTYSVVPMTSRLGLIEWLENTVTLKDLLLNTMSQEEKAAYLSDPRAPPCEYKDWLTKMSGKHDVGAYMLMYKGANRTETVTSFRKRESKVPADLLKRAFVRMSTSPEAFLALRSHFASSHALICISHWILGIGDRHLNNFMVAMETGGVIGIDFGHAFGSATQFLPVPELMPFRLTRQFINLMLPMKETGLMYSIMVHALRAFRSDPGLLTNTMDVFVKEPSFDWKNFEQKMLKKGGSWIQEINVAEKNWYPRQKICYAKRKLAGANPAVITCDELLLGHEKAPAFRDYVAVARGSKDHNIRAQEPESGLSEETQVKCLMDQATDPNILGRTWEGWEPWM
Please note: true applies when inhibition is 7% or greater, and false applies otherwise.

{"columns": ["compoundStructure", "classLabel"],
 "data": [
  ["NC(=O)c1ccc(-c2ccc3oc(N4CCOCC4)nc(=O)c3c2)cc1", "true"],
  ["O=c1nc(N2CCOCC2)oc2ccc(-c3cccc4c3sc3ccccc34)cc12", "true"],
  ["O=c1nc(N2CCOCC2)oc2ccc(-c3ccccc3)cc12", "false"],
  ["O=c1nc(N2CCOCC2)oc2ccc(-c3cccc4ccccc34)cc12", "false"],
  ["O=c1nc(N2CCOCC2)oc2ccc(-c3ccsc3)cc12", "true"],
  ["O=c1nc(N2CCOCC2)oc2ccc(/C=C/c3ccccc3)cc12", "true"],
  ["O=c1nc(N2CCOCC2)oc2ccc(-c3cc4ccccc4s3)cc12", "false"],
  ["O=c1nc(N2CCOCC2)oc2ccc(-c3cccs3)cc12", "true"]
]}

Cited source for all entries: ChEMBL document CHEMBL3763148
